# target-under-test: UniProt:P28562
# Sequence (P28562 whole entry, looked up): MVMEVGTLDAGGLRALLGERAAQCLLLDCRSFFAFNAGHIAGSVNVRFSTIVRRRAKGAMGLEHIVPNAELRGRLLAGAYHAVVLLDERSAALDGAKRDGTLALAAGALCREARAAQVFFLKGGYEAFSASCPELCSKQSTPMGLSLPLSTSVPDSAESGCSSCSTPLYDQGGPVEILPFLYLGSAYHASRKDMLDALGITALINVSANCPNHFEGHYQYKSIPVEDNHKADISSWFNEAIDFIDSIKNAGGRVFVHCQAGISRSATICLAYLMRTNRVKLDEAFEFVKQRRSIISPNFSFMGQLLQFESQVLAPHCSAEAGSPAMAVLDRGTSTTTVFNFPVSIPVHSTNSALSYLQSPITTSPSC
# assay-procedure: reproducibility of MKP-1 inhibition curves – biochemical, reproducibility testing, probe assessment, dose response (AID 563)
# condition-summary: recombinant MKP-1 phosphatase, fluorescence intensity
The source made the active and inactive calls. No rule for the calls is given here.
Labels: true (1) for active, false (0) for inactive

1) Cc1ccc(C)n1-c1cccc(C(=O)O)c1
true (1)
2) CCCCCNC(=O)c1ccc2c(=O)[nH]c3c(C(=O)NCC4CCCO4)sc(=S)n3c2c1 (stereo not drawn)
true (1)
3) Cc1nc2c(C(=O)NCCC3=CCCCC3)c[nH]n2c(=O)c1Cl
true (1)
4) CC(C)Sc1nc2sc3c(c2c2nnc(SCC(=O)NCc4ccco4)n12)CCCC3
true (1)
5) Cc1ccc(-c2csc(NC(=O)c3ccno3)n2)cc1
true (1)
6) CCOC(=O)c1ccc2c(c1)C1C=CCC1C(C(=O)O)N2 (stereo not drawn)
true (1)
7) O=C1C(C2=C(O)c3ccccc3C2=O)=Nc2ccccc21
false (0)
8) Cc1cccc(N2CCN(C(=O)Cc3c(C(=O)O)[nH]c4ccc(Cl)cc34)CC2)c1C
true (1)
